- TGT: T1, human IL-17A (human, UniProt Q16552 24-155)
- T1 construct: secreted form made in Hek293 cells (GenBank U32659); also called hIL-17A; hIL17A
- ASSAY_TEXT: SPR (Biacore) off-rate
Listing of entries alongside the reported koff.
Give the value, in units of s⁻¹, as a plain number.

Record excerpt, results attached:
BINDER | koff / s⁻¹
IL17MS3051 (VHH, variant of IL17MS13B03; Kabat numbering) VHH: EVQLVESGGGSVQAGDSLRLSCAASGRAFSINWFGWFRQTPGKEREFVAGIRWSDAYTEYANSVKGRFTISRDNAKNTVDLQMDSLKPEDTAVYYCVLDLSTVRYWGQGTQVTVSS | 0.000205
IL17MS3043 (VHH, variant of IL17MS13B03; Kabat numbering) VHH: EVQLVESGGGSVQPGGSLRLSCAASGRANSINWFGWFRQTPGKEREFVAGIRWSDAYTEYANSVKGRFTISRDNSKNTVYLQMDSLRPEDTAVYYCVLDLSTVRYWGQGTLVTVSS | 0.000276
IL17MS3047 (VHH, variant of IL17MS13B03; Kabat numbering) VHH: EVQLVESGGGLVQPGGSLRLSCAASGRANSINWFGWFRQAPGKEREFVAGIRWSDAYTEYAASVKGRFTISRDNSKNTVYLQMNSLRPEDTAVYYCVLDLSTVRYWGQGTLVTVSS | 0.000252

Now look at this entry.
### Prompt Sample IL17MS3049 (VHH, variant of IL17MS13B03; Kabat numbering) VHH: EVQLVESGGGSVQPGDSLRLSCAASGRANSINWFGWFRQAPGKEREFVAGIRWSDAYTEYANSVKGRFTISRDNSKNTVYLQMDSLRPEDTAVYYCVLDLSTVRYWGQGTLVTVSS — what was its koff?
### Response 0.00015
